From: patent US7556938B1

- MEASUREMENT_TARGET: T1, rKv4.2N (Rattus norvegicus, UniProt Q63881)
- T1 construct: the N-terminal domains of Kv4.3, Kv4.2 were expressed as “baits” (Kv4.3N, Kv4.2N, respectively); expressed in transfected cells; host or cells: yeast HF7c (baits), mated with Y187 (fish)
- T1 sequence (Q63881 1-184 limits assumed): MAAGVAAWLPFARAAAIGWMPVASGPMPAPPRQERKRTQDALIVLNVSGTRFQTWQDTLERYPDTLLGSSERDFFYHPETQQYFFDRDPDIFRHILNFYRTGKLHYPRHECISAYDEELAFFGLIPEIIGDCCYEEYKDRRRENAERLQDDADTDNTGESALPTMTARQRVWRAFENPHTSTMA
- PROTOCOL_TEXT: Yeast two-hybrid binding and specificity test, Kv4.2 N-terminal bait
OBSERVED_PROPERTY: binding to rKv4.2N in yeast two-hybrid assay

MOLECULE	REPORTED
Rat 1p: partial rat PCIP of 267 amino acid residues, similar to human Restin (protein) LKGARPRVVNSTCSDFNHGSALHIAASNLCLGAAKCLLEHGANPALRNRKGQVPAEVVPDPMDMSLDKAEAALVAKELRTLLEEAVPLSCTLPKVTLPNYDNVPGNLMLSALGLRLGDRVLLDGQKTGTLRFCGTTEFASGQWVGVELDEPEGKNDGSVGGVRYFICPPKQGLFASVSKVSKAVDAPPSSVTSTPRTPRMDFSRVTGKGRREHKGKKKSPSSPSLGSLQQREGAKAEVGDQVLVAGQNRDCAFLWEDRLCSRLLVWH	binds
Rat 5p: identical to rat Calpactin I light chain or P10 (protein) MPSQMEHAMETMMLTFHRFAGEKNYLTKEDLRVLMEREFPGFLENQKDPLAVDKIMKDLDQCRDGKVGFQSFLSLVAGLIIACNDYFVVHMKQKK	binds
Rat 7s: rat ortholog of the human vacuolar H(+)-ATPase catalytic subunit A (partial) (protein) ADSTSRWAEALREISGRLAEMPADSGYPAYLGARLASFYERAGRVKCLGNPEREGSVSIVGAVSPPGGDFSDPVTSATLGIVQVFWGLDKKLAQRKHFPSVNWLISYSKYMRALDEYYDKHFTEFVPLRTKAKEILQEEEDLAEIVQLVGKASLAETDKITLEVAKLIKDDFLQQNGYTPYDRFCPFYKTVGMLSNMISFYDMARRAVETTAQSDNKITWSIIREHMGEILYKLSSMKFKDPVKDGEAKIKADYAQLLEDMQNAFRSLED	binds
